Target: G protein-activated inward rectifier potassium channel 2 (Homo sapiens) + G protein-activated inward rectifier potassium channel 1 (Homo sapiens) (UniProt P48051+P48549)
Sequence (P48051 whole entry, looked up): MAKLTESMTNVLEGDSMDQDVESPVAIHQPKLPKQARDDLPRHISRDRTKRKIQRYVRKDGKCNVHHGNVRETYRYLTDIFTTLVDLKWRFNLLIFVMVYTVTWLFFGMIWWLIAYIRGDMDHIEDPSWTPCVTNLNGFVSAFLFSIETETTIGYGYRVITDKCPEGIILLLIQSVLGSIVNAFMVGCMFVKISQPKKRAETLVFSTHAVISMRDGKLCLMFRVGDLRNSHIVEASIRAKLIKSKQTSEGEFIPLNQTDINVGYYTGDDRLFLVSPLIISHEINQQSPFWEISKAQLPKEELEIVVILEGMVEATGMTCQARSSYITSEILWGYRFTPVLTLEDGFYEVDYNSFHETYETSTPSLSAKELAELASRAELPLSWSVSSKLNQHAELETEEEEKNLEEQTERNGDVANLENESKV
Sequence (P48549 whole entry, looked up): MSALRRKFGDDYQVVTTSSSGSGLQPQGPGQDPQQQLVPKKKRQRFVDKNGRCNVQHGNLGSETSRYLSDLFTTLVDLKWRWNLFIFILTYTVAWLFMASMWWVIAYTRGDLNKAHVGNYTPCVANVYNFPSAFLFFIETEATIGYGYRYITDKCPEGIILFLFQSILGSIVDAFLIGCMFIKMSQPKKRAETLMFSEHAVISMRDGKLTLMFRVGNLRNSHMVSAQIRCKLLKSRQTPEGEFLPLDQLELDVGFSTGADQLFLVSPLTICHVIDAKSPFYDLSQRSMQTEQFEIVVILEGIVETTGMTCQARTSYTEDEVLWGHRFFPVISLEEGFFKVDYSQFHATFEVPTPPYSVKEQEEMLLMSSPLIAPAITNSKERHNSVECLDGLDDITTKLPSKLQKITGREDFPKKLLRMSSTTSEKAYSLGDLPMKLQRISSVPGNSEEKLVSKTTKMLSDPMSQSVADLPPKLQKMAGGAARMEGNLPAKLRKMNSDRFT
Assay: activation of human GIRK potassium channels – cell-based, thallium flux, HEK-293, GIRK1/2, dose response (AID 623909)
Details: HEK-293 hGIRK1/2, thallium flux FluoZin-2 fluorescence
pEC50: −log10 of the molar value.
Classification field: yes (1) = pEC50 at or over 5; no (0) = pEC50 under 5.

Solved entries:
Please check the record CCOC(=O)C(Cc1ccccc1)NC(=O)Cn1nnc(-c2ccccc2)n1 (centres undefined) and state if its pEC50 is at or above 5.
no (0)

Reported pEC50 reaches at least 5 for COc1ccc(C2CC(c3ccc(Cl)c(Cl)c3)Nc3nc(N)nn32)cc1 (centres undefined) ?
yes (1)

Determine whether this compound has pEC50 no lower than 5: CCOC(=O)C1=C(CC)Nc2ccccc2N=C1NC(=O)Nc1ccc(Cl)c(Cl)c1
yes (1)

Test whether the compound CCOC(=O)c1ccc(NC(=O)Nc2ccc(OC)c(OC)c2)cc1 records pEC50 of 5 or higher.
yes (1)

For this compound, is measured pEC50 5 or higher? COc1ccc(C(=O)NC(=S)NC(C)C)cc1Br
yes (1)

New cases:
Please tell me: is the compound CCSc1nnc(NC(=O)NC(CC)(C(F)(F)F)C(F)(F)F)s1 at or over 5 in terms of pEC50?
no (0)

Please check the record O=C(Nc1ccc(Cl)cc1)NC1CCCCC1Cc1ccco1 (centres undefined) and state if its pEC50 is at or above 5.
yes (1)

Quick check, pEC50 >= 5? O=C(/C=C/c1ccccc1)NC(NC(=S)Nc1cccc(Cl)c1)C(Cl)(Cl)Cl (centres undefined)
yes (1)

====

Molecular target: G protein-activated inward rectifier potassium channel 2 (Homo sapiens) + G protein-activated inward rectifier potassium channel 1 (Homo sapiens) (UniProt P48051+P48549)
Assay: activation of human GIRK potassium channels – cell-based, thallium flux, HEK-293, GIRK1/2, dose response (AID 623909)
Details: HEK-293 hGIRK1/2, thallium flux FluoZin-2 fluorescence
reportedMetric: EC50

In the examples that follow, each entry is paired with its recorded EC50.
Give its EC50 value. Item: O=C(Nc1ccc(F)c(F)c1)NC1CCCCC1
8.55 µM

Please give the measured EC50 for this compound: COc1ccc(NC(=O)Nc2ccccc2C(=O)N2CCCC2)cc1
30 µM

Which EC50 is reported for this compound? CSc1cccc(NC(=O)COc2ccccc2)c1
30 µM

Fill in: EC50 of COc1cccc(NC(=O)CC2COc3ccccc3O2)c1 (stereo unspecified) is ___
30 µM

Fill in: EC50 of CCCCc1ccc(NC(=S)Nc2ccc(Cl)c(S(=O)(=O)N(C)C)c2)cc1 is ___
4 µM

More entries:
I would be grateful if you could share the reported EC50 for CCOc1ccc(NC(=O)NC23CC4CC(CC(C4)C2)C3)cc1 .
1.48 µM

Which value of EC50 has been reported for CC(Sc1nnnn1C)C(=O)Nc1ccc(Oc2ccccc2)cc1 (stereo unspecified) in the records?
30 µM

Recorded EC50 for CSc1ccccc1NC(=O)Nc1ccccc1 , please?
12.8 µM

# lookup: EC50 of CN(C)S(=O)(=O)N(CC(=O)Nc1ccc2ccccc2c1)c1ccccc1
7.2 µM

Data request, read-out EC50, for COc1ccc(Nc2nnc(Cc3ccccc3)c(=O)[nH]2)c(OC)c1
30 µM

Entry under review: COC(=O)[C@H](Cc1ccccc1)NC(=O)NCCC1=CCCCC1 . Reported EC50?
30 µM

So what does the record say about EC50 for Fc1ccc(CSc2nc3ccccc3[nH]2)c2ccccc12 ?
3.6 µM

Where do these numbers come from? They come from PubChem BioAssay AID623909.
